# assaySystem: WT BTK protein (Homo sapiens)
# Construct: measured for intracellular BTK protein levels by Western blotting; endogenous in cells; host or cells: TMD-8 or RAMOS cells
# Sequence (Q06187 whole entry): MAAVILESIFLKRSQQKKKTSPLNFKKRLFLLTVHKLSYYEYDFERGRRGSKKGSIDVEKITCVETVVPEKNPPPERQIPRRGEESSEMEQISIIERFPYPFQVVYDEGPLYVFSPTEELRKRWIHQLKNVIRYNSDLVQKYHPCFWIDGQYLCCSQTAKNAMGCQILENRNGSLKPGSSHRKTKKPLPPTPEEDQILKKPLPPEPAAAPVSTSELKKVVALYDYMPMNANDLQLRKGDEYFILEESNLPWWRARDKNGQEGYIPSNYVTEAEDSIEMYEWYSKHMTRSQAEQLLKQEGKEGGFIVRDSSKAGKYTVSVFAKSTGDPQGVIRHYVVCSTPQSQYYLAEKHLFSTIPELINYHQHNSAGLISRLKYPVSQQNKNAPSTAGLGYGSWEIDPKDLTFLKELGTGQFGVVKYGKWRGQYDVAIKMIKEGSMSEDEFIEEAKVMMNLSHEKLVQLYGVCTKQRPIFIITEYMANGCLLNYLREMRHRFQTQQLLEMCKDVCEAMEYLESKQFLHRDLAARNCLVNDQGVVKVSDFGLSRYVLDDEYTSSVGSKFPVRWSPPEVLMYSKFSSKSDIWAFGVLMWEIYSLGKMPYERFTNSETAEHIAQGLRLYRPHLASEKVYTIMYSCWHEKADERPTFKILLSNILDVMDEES
# testProtocol: BTK protein degradation assay (Western blotting), WT BTK
# Type: cell-based
# conditionInfo: concentration range accounting for 50% degradation of WT BTK protein, TMD-8 or RAMOS cells, 24 hours
quantity: DC50

>>> assayresult("Cc1cccc(C)c1Nc1nn(C)c2nc(Nc3ccc4c(c3)CN(CC(=O)N3CCN(c5ccc6c(c5)C(=O)N(C5CCC(=O)NC5=O)C6=O)CC3)CC4)ncc12 (centres unmarked) [Compound 95]")
"10 to 1000 nM"
>>> assayresult("Cc1cccc(C)c1Nc1nn(C)c2nc(Nc3ccc4c(c3)CN(CCOCCNC(=O)CN3CCN(c5ccc6c(c5)C(=O)N(C5CCC(=O)NC5=O)C6=O)CC3)CC4)ncc12 (centres unmarked) [Compound 20]")
"0.1 to 10 nM"
>>> assayresult("Cc1cccc(C)c1Nc1nn(C)c2nc(Nc3ccc4c(c3)CN(C(=O)COc3ccc5c(c3)CN(C3CCC(=O)NC3=O)C5=O)CC4)ncc12 (centres unmarked) [Compound 105]")
"0.1 to 10 nM"
>>> assayresult("Cc1cccc(C)c1Nc1nn(C)c2nc(Nc3ccc4c(c3)CN(CC3CCN(C(=O)COc5ccc6c(c5)C(=O)N(C5CCC(=O)NC5=O)C6=O)CC3)CC4)ncc12 (centres unmarked) [Compound 30]")
"0.1 to 10 nM"
>>> assayresult("Cc1cccc(C)c1Nc1nn(C)c2nc(Nc3ccc4c(c3)CN(C(=O)COCCOCCNC(=O)C3CCN(c5cccc6c5C(=O)N(C5CCC(=O)NC5=O)C6=O)CC3)CC4)ncc12 (centres unmarked) [Compound 4]")
"10 to 1000 nM"
>>> assayresult("Cc1cccc(C)c1Nc1nn(C)c2nc(Nc3cccc(CNCC4CCN(c5ccc6c(c5)C(=O)N(C5CCC(=O)NC5=O)C6=O)CC4)c3)ncc12 (centres unmarked) [Compound 41]")
"10 to 1000 nM"

Give WT BTK protein (Homo sapiens) DC50 for Cc1cccc(C)c1Nc1nn(C)c2nc(Nc3ccc(N4CCN(C[C@H]5CCN(c6ccc7c(c6)C(=O)N(C6CCC(=O)NC6=O)C7=O)C5)CC4)nc3)ncc12 (some centres unmarked) [Compound 154] 0.1 to 10 nM

Give WT BTK protein (Homo sapiens) DC50 for Cc1cccc(C)c1Nc1nn(C)c2nc(Nc3ccc4c(c3)CN(C3CCN(C[C@H]5CCN(c6ccc7c(c6)C(=O)N(C6CCC(=O)NC6=O)C7=O)C5)CC3)CC4)ncc12 (some centres unmarked) [Compound 142] 0.1 to 10 nM

Give WT BTK protein (Homo sapiens) DC50 for Cc1cccc(C)c1Nc1nn(C(C)C)c2nc(Nc3ccc4c(c3)CN(CC3CCN(c5ccc6c(c5)C(=O)N(C5CCC(=O)NC5=O)C6=O)CC3)CC4)ncc12 (centres unmarked) [Compound 86] 0.1 to 10 nM

Give WT BTK protein (Homo sapiens) DC50 for Cc1cccc(C)c1Nc1nn(C)c2nc(Nc3ccc4c(c3)CN(C(=S)C3CCN(C(=O)CNc5ccc6c(c5)C(=O)N(C5CCC(=O)NC5=O)C6=O)CC3)CC4)ncc12 (centres unmarked) [Compound 235] 0.1 to 10 nM

Give WT BTK protein (Homo sapiens) DC50 for Cc1cccc(C)c1Nc1nn(C)c2nc(Nc3ccc4c(c3)CN(C3CCN(C[C@H]5CCCN(c6ccc7c(c6)C(=O)N(C6CCC(=O)NC6=O)C7=O)C5)CC3)CC4)ncc12 (some centres unmarked) [Compound 140] 0.1 to 10 nM
